testDescription: Phase 1b MAD study (Part 1), 28-day dosing, PK
Type: in vivo, human
experimentalContext: male, human, in vivo, oral, 90 mg, 90 mg once daily, Day 28; mean; read-out: Cmax
quantityKind: Cmax (ng/mL)
Answer in ng/mL, number only, no unit symbol.

Lookup: State the recorded Cmax for this entry: "Cc1ccc(C2=CC(C)(C)Oc3ccc(-c4ccc(-c5ccc(C(=O)O)cc5)[nH]4)cc32)cc1"
Found: 1160

====

testDescription: Phase 1b MAD study (Part 1), 28-day dosing, PK
Format: in vivo, human
experimentalContext: male, human, in vivo, oral, 30 mg; […] mg once daily, Day 28; mean
quantityKind: AUC(0-inf) (ng·h/mL)
Answer in ng·h/mL, number only, no unit symbol.

Lookup: State the recorded AUC(0-inf) for this entry: "Cc1ccc(C2=CC(C)(C)Oc3ccc(-c4ccc(-c5ccc(C(=O)O)cc5)[nH]4)cc32)cc1"
Found: 36400

====

testDescription: Phase 1a single ascending oral dose study, PK
experimentalContext: male, human, in vivo; single oral dose 30 mg, fasted; geometric mean
quantityKind: AUC(0-inf) (ng·h/mL)
Answer in ng·h/mL, number only, no unit symbol.

Lookup: State the recorded AUC(0-inf) for this entry: Cc1ccc(C2=CC(C)(C)Oc3ccc(-c4ccc(-c5ccc(C(=O)O)cc5)[nH]4)cc32)cc1 [Compound A]
Found: 12900

====

testDescription: Phase 1b MAD study (Part 1), 28-day dosing, PK
Type: in vivo, human
experimentalContext: male, human, in vivo, oral, 90 mg, 90 mg once daily, Day 1; mean; read-out: Cmax
quantityKind: Cmax (ng/mL)
Answer in ng/mL, number only, no unit symbol.

Lookup: State the recorded Cmax for this entry: "Cc1ccc(C2=CC(C)(C)Oc3ccc(-c4ccc(-c5ccc(C(=O)O)cc5)[nH]4)cc32)cc1"
Found: 794

====

testDescription: Phase 1a single ascending oral dose study, PK
experimentalContext: male, human, in vivo; single oral dose 180 mg, fasted; geometric mean
quantityKind: half-life
Put your answer as a value accompanied by its unit after it.

Lookup: State the recorded half-life for this entry: "Cc1ccc(C2=CC(C)(C)Oc3ccc(-c4ccc(-c5ccc(C(=O)O)cc5)[nH]4)cc32)cc1"
Found: 76.3 h

====

testDescription: In vitro stability in microsomes (mouse)
Format: in vitro ADME
experimentalContext: mice, read-out: Half-life (T1/2) in microsomes
quantityKind: half-life

Lookup: State the recorded half-life for this entry: "Cc1ccc(C2=CC(C)(C)Oc3ccc(-c4ccc(-c5ccc(C(=O)O)cc5)[nH]4)cc32)cc1"
Found: > 23.1 h

====

testDescription: Phase 1b MAD study (Part 1), 28-day dosing, PK;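 further: PK profiles sampled across 24 h on Day 1 and Day 28 while participants stayed overnight in the clinical research unit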
Assay type: in vivo, human
experimentalContext: male, human, in vivo, oral, 15 mg, 15 mg once daily, Day 1; mean; read-out: AUC0-24
quantityKind: AUC(0-t) (ng·h/mL)
Answer in ng·h/mL, number only, no unit symbol.

Lookup: State the recorded AUC(0-t) for this entry: Cc1ccc(C2=CC(C)(C)Oc3ccc(-c4ccc(-c5ccc(C(=O)O)cc5)[nH]4)cc32)cc1 [Compound A]
Found: 4850

====

testDescription: Dog single dose cardiovascular study
experimentalContext: male, Beagle, dog, in vivo
quantityKind: NOAEL (mg/kg)
Answer in mg/kg, number only, no unit symbol.

Lookup: State the recorded NOAEL for this entry: "Cc1ccc(C2=CC(C)(C)Oc3ccc(-c4ccc(-c5ccc(C(=O)O)cc5)[nH]4)cc32)cc1"
Found: 25

Origin of measurements: patent US20260191825A1
